Each entry below lists one item and its recorded inhibition value.
test name: antiviral activity against West Nile virus in cells, dose response, cell-based, EC_1, probe candidates (AID 588371)
conditions: West Nile virus-infected cells, antiviral inhibition; at 50 µM (top of the series)
Results filed as inconclusive are left out.
parameter: inhibition (%)

molecule smiles | parameter | test value
O=C(CSc1nc2ccccc2c(=O)n1-c1ccc(Cl)c(Cl)c1)Nc1cccc2c1CCC2 | inhibition | -1.69
O=C(CSc1nc2cccc(F)c2c(=O)n1-c1ccccc1)Nc1ccc2c(c1)CCC2 | inhibition | -0.4
O=C(CCSc1nc2cccc(F)c2c(=O)n1-c1cc(F)c(F)c(F)c1)Nc1ccc2c(c1)CCC2 | inhibition | 9.08
O=C(CSc1nc2cccc(F)c2c(=O)n1-c1ccccc1)Nc1ccc2ncsc2c1 | inhibition | 1.43
O=C(CSc1nc2cccc(F)c2c(=O)n1-c1ccc(Cl)c(F)c1)Nc1ccc2c(c1)CCC2 | inhibition | -1.63
